- target-desc: Estrogen receptor (Homo sapiens) (UniProt P03372)
- Sequence (P03372 whole entry, looked up): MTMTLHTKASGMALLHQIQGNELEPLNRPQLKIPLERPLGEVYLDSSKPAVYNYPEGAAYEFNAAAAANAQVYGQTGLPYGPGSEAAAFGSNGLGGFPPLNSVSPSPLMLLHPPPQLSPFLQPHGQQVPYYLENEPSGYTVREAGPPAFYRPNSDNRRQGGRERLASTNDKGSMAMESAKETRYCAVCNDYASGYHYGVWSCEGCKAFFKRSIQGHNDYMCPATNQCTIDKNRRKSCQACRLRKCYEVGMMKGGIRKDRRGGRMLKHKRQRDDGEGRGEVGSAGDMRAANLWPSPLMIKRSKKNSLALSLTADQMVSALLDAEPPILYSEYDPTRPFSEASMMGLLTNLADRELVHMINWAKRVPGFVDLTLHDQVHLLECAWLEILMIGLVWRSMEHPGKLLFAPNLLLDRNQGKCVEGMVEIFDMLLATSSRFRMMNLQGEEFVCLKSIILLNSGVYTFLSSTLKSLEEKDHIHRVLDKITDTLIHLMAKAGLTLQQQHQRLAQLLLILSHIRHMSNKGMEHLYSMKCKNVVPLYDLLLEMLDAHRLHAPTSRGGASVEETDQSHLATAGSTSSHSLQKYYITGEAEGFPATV
- assay-remarks: qHTS assay to identify small molecule agonists of the estrogen receptor alpha (ER-alpha) signaling pathway (AID 743075);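 also: HEK293 GripTite cells with ER-alpha and UAS-driven beta-lactamase reporter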
- condition-info: HEK293 ER-alpha-UAS-bla, beta-lactamase FRET ratio, 18 h; series mostly up to 70.1 µM
Activity calls are given as the source filed them. Calls follow the shape of the full dose curve.
Your answer must be one of the following: YES (active), NO (inactive)

// known answers, use as guide
compound | assigned-category
CCCN(CCC)CCc1c[nH]c2ccccc12 | NO
CC[C@H](C)[C@H]1O[C@]2(C=C[C@@H]1C)C[C@@H]1C[C@@H](C/C=C(\C)[C@@H](O[C@H]3C[C@H](OC)[C@@H](O[C@H]4C[C@H](OC)[C@@H](O)[C@H](C)O4)[C@H](C)O3)[C@@H](C)/C=C/C=C3\CO[C@@H]4[C@H](O)C(C)=C[C@@H](C(=O)O1)[C@]34O)O2 | NO
Nc1ccccc1C(=O)Oc1ccc2ccccc2c1 | NO
O=C(O)COc1nc(Cl)c(Cl)cc1Cl | NO

// query Record request — test call for CCCN(CC)CC1COC2(CCC(C(C)(C)C)CC2)O1 (centres undefined)
// result NO

// query Now consider CCN(CC)c1c([N+](=O)[O-])cc(C(F)(F)F)c(N)c1[N+](=O)[O-] and answer again.
// result YES

// query Moving on to the next compound: Oc1ccc(C2(c3ccc(O)cc3)CCCCC2)cc1
// result YES

// query Ok, now BrC(Br)C(Br)(Br)Br
// result NO

// query How about Cc1cc(C(F)(C(F)(F)F)C(F)(F)F)ccc1NC(=O)c1cccc(I)c1C(=O)NC(C)(C)CS(C)(=O)=O ?
// result NO

###

- assay-remarks: qHTS assay to identify small molecule agonists of the estrogen receptor beta (ER-beta) signaling pathway - cell viability counter screen (AID 1259380); also: nearly all actives have a fitted effect of over 30% in size
- condition-info: ER-beta-bla HEK293T viability, CellTiter-Glo luminescence, 16 h; series mostly up to 92.4 µM
Records with an inconclusive call do not appear. The source made the active and inactive calls. Calls follow the shape of the dose curve; as a rule, active = well fitted cell-killing curve with a large enough effect in the repeat runs; inconclusive = weak or mixed curves, or effect the other way; inactive = flat fitted curve, though single readings scatter.
Permitted responses: active, inactive

compound | assigned-category
CCOCn1c(-c2ccc(Cl)cc2)c(C#N)c(Br)c1C(F)(F)F | active
CSCCCN=C=S | inactive
CC1(C)CN=C(NN=C(/C=C/c2ccc(C(F)(F)F)cc2)/C=C/c2ccc(C(F)(F)F)cc2)NC1 | active
[Cl][Sn]([c]1ccccc1)([c]1ccccc1)[c]1ccccc1 | active
O=C(CCl)Nc1ccccc1 | inactive
Cc1cc(C(F)(C(F)(F)F)C(F)(F)F)ccc1NC(=O)c1cccc(I)c1C(=O)NC(C)(C)CS(C)(=O)=O | active
O=C(O)C1C2CCC(O2)C1C(=O)O (configuration not stated) | inactive
COc1ccc([N+](=O)[O-])cc1O | inactive
COC[C@H](C)N(C(=O)CCl)c1c(C)csc1C | inactive
N#CC(Cl)Cl | inactive

// query Hi, do you know how CC(C)Oc1cccc(NC(=O)c2ccccc2C(F)(F)F)c1 came out in this test?
// result active

// query Same read-out for CC(C)OC(=O)C(O)(c1ccc(Cl)cc1)c1ccc(Cl)cc1 ?
// result inactive

// query Follow-up item: COC(=O)N(C(=O)N1COC2(C(=O)OC)Cc3cc(Cl)ccc3C2=N1)c1ccc(OC(F)(F)F)cc1 (configuration not stated)
// result inactive

// query Okay, and O=C(CCCN1CCC2(CC1)C(=O)NCN2c1ccccc1)c1ccc(F)cc1 ?
// result active

// query Next record, please: N#CCc1ccc(Cl)cc1
// result inactive

// query Here is the next compound: Cl/C=C\CCl
// result inactive

// query # repeat for Clc1ccc(Oc2ccccc2)cc1
// result inactive

// query How about this compound: COc1cccc2c1C(=O)c1c(O)c3c(c(O)c1C2=O)C[C@@](O)(C(=O)CO)CC3OC1CC(N2CCOC(OC)C2)C(O)C(C)O1 (some centres not stated)
// result inactive

// query Then what about the compound C=COCCCl ?
// result inactive

// query Entry Cn1[nH]nnc1=S please
// result inactive

// query Another: CCOP(=S)(OCC)SCS(=O)(=O)C(C)(C)C
// result inactive

// query Lookup COP(=S)(OC)Oc1cc(Cl)c(Br)cc1Cl
// result inactive

// query Input Cc1cc(C(C)(C)c2cc(C)c(O)c(C)c2)cc(C)c1O
// result active

// query Can you handle CCOC(=O)c1ccccc1S(=O)(=O)NC(=O)Nc1nc(Cl)cc(OC)n1 next?
// result inactive

###

- assay-remarks: qHTS assay for small molecule disruptors of the mitochondrial membrane potential - cell viability (AID 720634); also: nearly all actives have a fitted effect of over 20% in size; also: potency is read from the fitted curve at half-maximal effect
- condition-info: HepG2 viability, ATP luminescence (CellTiter-Glo), 1 h; series mostly up to 83.2 µM
- Method: U.S. Tox21 Program National Center for Advancing Translational Sciences [NCATS] NIH Chemical Genomics Center [NCGC] U.S. Environmental Protection Agency [EPA] National Institutes of Environmental Health Sciences [NIEHS] National Toxicology Program [NTP] […] Measuring MMP in living cells is commonly used to assess the effect of chemicals on mitochondrial function; decreases in MMP can be detected using lipophilic cationic fluorescent dyes. […] The cytotoxicity was measured in the same assay well of MMP assay. […]
Inconclusive results are not listed. Active and inactive are the calls of the source. Calls follow the shape of the full dose curve.
property-name: Potency

Some solved cases for reference:
compound | property-name | recorded-value
CC[C@H](C)[C@H]1O[C@]2(C=C[C@@H]1C)C[C@@H]1C[C@@H](C/C=C(\C)[C@@H](O[C@H]3C[C@H](OC)[C@@H](O[C@H]4C[C@H](OC)[C@@H](O)[C@H](C)O4)[C@H](C)O3)[C@@H](C)/C=C/C=C3\CO[C@@H]4[C@H](O)C(C)=C[C@@H](C(=O)O1)[C@]34O)O2 | Potency | inactive
[Cl][Sb]([Cl])[Cl] | Potency | inactive
Clc1ccc(CCC(Cn2ccnc2)Sc2c(Cl)cccc2Cl)cc1 (centres undefined) | Potency | inactive
c1ccc2cc3c(cc2c1)-c1cccc2cccc-3c12 | Potency | inactive
Cn1cc(C2=C(c3cn(C4CCN(Cc5ccccn5)CC4)c4ccccc34)C(=O)NC2=O)c2ccccc21 | Potency | inactive
COC(=O)N(C(=O)N1CO[C@@]2(C(=O)OC)Cc3cc(Cl)ccc3C2=N1)c1ccc(OC(F)(F)F)cc1 | Potency | 3.32 µM (active)
c1ccc(Nc2ccc3ccccc3c2)cc1 | Potency | 17.1 µM (active)
O=C1c2ccccc2C(=O)C1C(=O)C(c1ccccc1)c1ccc(Cl)cc1 (centres undefined) | Potency | 61.1 µM (active)

Now consider a different compound.
// query Endpoint output: Potency of CC(C)N1C(=O)N(c2ccccc2)CSC1=NC(C)(C)C . Value?
// result 15.4 µM (active)

###

- assay-remarks: qHTS assay to identify small molecule antagonists of the retinoid acid receptor (RAR) signaling pathway - cell viability counter screen (AID 1159551); also: nearly all actives have a fitted effect of over 35% in size
- condition-info: C3RL4 cells viability, ATP luminescence (CellTiter-Glo), 6 h; series mostly up to 92.4 µM
Results filed as inconclusive are left out. Active and inactive are the calls of the source. Calls follow the shape of the dose curve; as a rule, active = well fitted cell-killing curve with a large enough effect in the repeat runs; inconclusive = weak or mixed curves, or effect the other way; inactive = flat fitted curve, though single readings scatter.
The reply should name one outcome from active, inactive

# count of solved cases: 4
molecule | assigned-category
CC(=O)C(Cl)(Cl)Cl | inactive
CCOP(=S)(OCC)OC(Cl)C(Cl)(Cl)Cl (stereo unspecified) | inactive
COc1ccc(N)cc1N | inactive
[Cl][Sn]([c]1ccccc1)([c]1ccccc1)[c]1ccccc1 | active

// query For CC(=O)/C=C/c1ccc2c(c1)OCO2 , which call appears in the assay record?
// result inactive

// query Also check COP(=S)(OC)Oc1cc(Cl)c(Br)cc1Cl
// result inactive

// query How about O=C1C=CC(=O)c2ccccc21 ?
// result active

###

- assay-remarks: qHTS assay to identify small molecule agonists of the NFkB signaling pathway - cell viability counter screen (AID 1159515); also: nearly all actives have a fitted effect of over 55% in size
- condition-info: NFkB-bla ME-180 viability, CellTiter-Glo luminescence, 5 h; series mostly up to 61 µM
Records with an inconclusive call do not appear. The source made the active and inactive calls. Calls come from the whole dose curve.
Outcome field: choose from active, inactive

For orientation, consider the following solved cases.
compound | assigned-category
CCCCCCCCCCCCCCC(Br)C(=O)O (centres undefined) | active
COC(=O)N(C(=O)N1CO[C@@]2(C(=O)OC)Cc3cc(Cl)ccc3C2=N1)c1ccc(OC(F)(F)F)cc1 | inactive
CCOc1cc(C(C)(C)C)ccc1C1COC(c2c(F)cccc2F)=N1 (centres undefined) | inactive
COC12CC[C@@]3(C[C@@H]1C(C)(O)C(C)(C)C)[C@H]1Cc4ccc(O)c5c4[C@@]3(CCN1CC1CC1)[C@H]2O5 (some centres undefined) | active
CCCCCCCCc1ccc(O)cc1 | active

// query Assay outcome for C[C@@H]1O[C@@H](O[C@H]2C[C@@H](O)[C@]3(CO)[C@H]4[C@H](O)C[C@]5(C)[C@@H](C6=CC(=O)OC6)CC[C@]5(O)[C@@H]4CC[C@]3(O)C2)[C@H](O)[C@H](O)[C@H]1O : what was it?
// result active

// query What do we get for c1ccc2cc3c(cc2c1)-c1cccc2cccc-3c12 ?
// result inactive

// query Moving on to the next compound: COc1ccc(OC)c(CC(C)N)c1 (centres undefined)
// result inactive

// query Cool, now CCOC(=O)OC1=C(c2cc(C)ccc2C)C(=O)NC12CCC(OC)CC2 (centres undefined)
// result inactive
